testSystem: Aspartate--tRNA(Asp/Asn) ligase (Mycobacterium tuberculosis (strain ATCC 25618 / H37Rv))
assayText: Assay for Asp RNA synthetase-1 from Mycobacterium tuberculosis
Format: functional
Set-up: scale not given: in the data most compounds retested in dose-response had high values
conditionContext: 30 µM

compound: Cn1cnc2c1CCN(Cc1nc(-c3ccsc3)no1)C2
Percent Effect / %: -8.92

compound: CCS(=O)(=O)NC[C@]12COC[C@H]1CN(Cc1cc(C)on1)C2
Percent Effect / %: -3.83

compound: CC(=O)N1CCN(Cc2nnc(C(C)(C)C)o2)CC1
Percent Effect / %: 3.25

compound: Cn1cc(CN2CC[C@@H]3[C@@H](CCC(=O)N3CCc3c[nH]cn3)C2)cn1
Percent Effect / %: -1.44

compound: Cc1nn(CCO)c(C)c1CNC1CCc2c(Cl)cccc21 (configuration not stated)
Percent Effect / %: 0.54

compound: COc1ncccc1C(=O)N1CCC(c2nnc(C3CC3)o2)CC1
Percent Effect / %: 3.02

compound: CC(C)NC(=O)N1CCc2nc(C(=O)NCc3ccccc3)sc2CC1
Percent Effect / %: 0.168

compound: O=C(NC[C@]12COC[C@H]1CN(C1CCOCC1)C2)c1ccco1
Percent Effect / %: 1.57

compound: CNC(=O)[C@H]1C[C@@H]2CN(S(=O)(=O)c3ccccc3)C[C@@H]2N1C
Percent Effect / %: -3.51

compound: COc1cccc2c1ccn2CCC(=O)N1CCCC(C(=O)O)C1 (configuration not stated)
Percent Effect / %: 6.53

compound: Cc1occc1C(=O)N1CCOCC2(CCN(Cc3nccs3)C2)C1 (configuration not stated)
Percent Effect / %: -0.802

compound: CCS(=O)(=O)NC(C(=O)NC)c1ccc(F)c(F)c1 (configuration not stated)
Percent Effect / %: -0.436

compound: O=C(CCN1CCCN(c2nccs2)CC1)Nc1ccccc1
Percent Effect / %: -1.81

compound: c1cnc(NC[C@@H]2CCC[C@@H]3CN(Cc4cccnc4)C[C@@H]32)nc1
Percent Effect / %: -0.324

compound: Cc1nc2ccnn2c(C)c1CCC(=O)N1CCN(C2CC2)CC1
Percent Effect / %: 3.26

compound: CC(C)c1nc(C2CCCN(C(=O)c3ccc4nccn4c3)C2)no1 (configuration not stated)
Percent Effect / %: 4.61

compound: O=C(NCC(O)CN1CCc2ccccc2C1)Nc1cccnc1 (configuration not stated)
Percent Effect / %: -0.98

compound: OC(COCc1ccccc1F)CN1CCc2c(ncn2C2CC2)C1 (configuration not stated)
Percent Effect / %: -6.48

compound: Cc1ncncc1C(=O)Nc1cnn(CC(=O)NC2CCCC2)c1
Percent Effect / %: -6.25

compound: Cn1cnnc1C1CCCN(C(=O)c2ccccc2Cl)C1 (configuration not stated)
Percent Effect / %: 1.15

compound: Cn1nc(C(=O)N2CCCCC2c2nc3cc(F)ccc3[nH]2)ccc1=O (configuration not stated)
Percent Effect / %: -2.79

compound: Cn1nnc2c1C(COCc1ccccn1)CN(C(=O)c1cccs1)C2 (configuration not stated)
Percent Effect / %: 0.388

compound: CN(C)c1ccc(CC(=O)N[C@@H]2CCNC[C@H]2O)cc1
Percent Effect / %: 3.77

compound: CCOCc1cccc(S(=O)(=O)N2CCSCC2)c1
Percent Effect / %: -3.43

compound: Cn1ccc(CN2CCC(c3ccccc3)CC2)cc1=O
Percent Effect / %: 4.58

compound: CCc1noc(C(C)N2CCOCC2)n1 (configuration not stated)
Percent Effect / %: -10.8

compound: O=C(CSc1ccncc1)N1C[C@H]2CC[C@@H]1CN(Cc1cccnc1)C2
Percent Effect / %: 2.67

compound: c1ccc(Cc2noc(CNC3CCc4ncnn4C3)n2)cc1 (configuration not stated)
Percent Effect / %: -0.932

compound: O=C(CCc1ccccn1)N1CCc2cc(Cl)cc(Cl)c2C1
Percent Effect / %: 15.8

compound: CS(=O)(=O)N1CCOCC2(CN(Cc3ccco3)CCO2)C1 (configuration not stated)
Percent Effect / %: -7.59

compound: COC[C@@H]1CC[C@H]2[C@H](CCN2S(=O)(=O)c2ccc(F)cc2)O1
Percent Effect / %: 8.74

compound: COCCN1CC[C@@H]2O[C@@H](COCC(=O)N3CCCC3)CC[C@@H]21
Percent Effect / %: -4.13

compound: CCc1nc(CCNC(=O)Nc2ccc(C(=O)NC)cc2C)cs1
Percent Effect / %: -2.88

compound: N#Cc1ccc(C2CC(=O)Nc3c2cnn3C2CCCC2)cc1 (configuration not stated)
Percent Effect / %: -5.3

compound: Cc1cc(C)nc(NC(=O)C(C)Oc2ccc3c(c2)OCO3)n1 (configuration not stated)
Percent Effect / %: 12.6

compound: O=S(=O)(c1cccnc1)N1CCN(CCn2ccnc2)CC1
Percent Effect / %: -4.66

compound: Cc1ccc(N2CCC3(CCN(C(N)=O)CC3)CC2)nn1
Percent Effect / %: 2.03

compound: Cc1cnn(CC2CCCCN2Cc2nc(N)c3ccccc3n2)c1 (configuration not stated)
Percent Effect / %: -5.71

compound: CC(C)C(C(=O)N1CCN(Cc2ccncc2)CC1)n1cncn1 (configuration not stated)
Percent Effect / %: 7.46

compound: Cn1cccc1C(=O)N[C@@H]1CN(CC2CC2)[C@@H]2COC[C@@H]21
Percent Effect / %: 1.28

compound: Cc1cnn(CC2CN(CC(=O)N(C)c3nccs3)CCO2)c1 (configuration not stated)
Percent Effect / %: -6.72

compound: CC(O)(CN1CCC2(CC1)OCCO2)c1cccc(C(F)(F)F)c1 (configuration not stated)
Percent Effect / %: 1.23

compound: c1ccc(OCCCN2CCN(c3ccc4nncn4n3)CC2)cc1
Percent Effect / %: -0.637

compound: COc1ccc(CN2CCCCC2CNC(=O)OC(C)(C)C)cc1F (configuration not stated)
Percent Effect / %: -1.76

compound: O=C(Cc1ccc(O)c(Cl)c1)N1CCCCC1CCn1cccn1 (configuration not stated)
Percent Effect / %: -0.725

compound: CC(CN1CCOCC1)NCC1CCN(c2cnn(C)c(=O)c2)CC1 (configuration not stated)
Percent Effect / %: 2.84

compound: c1cc2n(n1)CC(CNCc1ccc(OC3CCCCC3)nc1)CN2 (configuration not stated)
Percent Effect / %: -3.37
